So I've got MIC readings for Strep. pyogenes, take a look.
Answers are plain numbers, in µM.

Some entries whose results are on file:
O=C(O)C1CSc2c(-c3cccc(C(F)(F)F)c3)c(Cc3cccc4ccccc34)cc(=O)n21 (stereo not drawn) | 50
O=C(O)C1C(c2ccccc2)Sc2c(-c3ccc4c(c3)OCO4)c(COc3cccc4ccccc34)cc(=O)n21 (stereo not drawn) | 12.5
O=C(O)c1c(Cc2ccccc2)sc2c(C3CC3)c(Cc3cccc4ccccc34)cc(=O)n12 | 12.5
Cc1cccc(-c2sc3c(C4CC4)c(Cc4cccc5ccccc45)cc(=O)n3c2C(=O)O)c1 | 25
O=C(O)C1CSc2c(-c3cccc(C(F)(F)F)c3)c(Cc3c4ccccc4cc4ccccc34)cc(=O)n21 (stereo not drawn) | 12.5

Turning now to a further compound:
stdin: Hello, I am looking for reported MIC with Strep. pyogenes for O=C(O)c1c(-c2ccccc2)sc2c(C3CC3)c(Cc3cccc4ccccc34)cc(=O)n12 . Could you help?
stdout: 25

====

Can you tell me MBC for the items I'm about to list?
Tested on: C. diff
Test: MIC and MBC assays
Format: cell-based, Clostridium difficile
Conditions: Clostridioides difficile, compound alone, no antibiotic
Kindly report the value followed by its unit.

O=C(O)c1c(Cc2ccccc2)sc2c(C3CC3)c(Cc3cccc4ccccc34)cc(=O)n12 | 50 µM
Cc1cccc(-c2sc3c(C4CC4)c(Cc4cccc5ccccc45)cc(=O)n3c2C(=O)O)c1 | 50 µM
O=C(O)C1CSc2c(-c3cccc(C(F)(F)F)c3)c(Cc3cccc4ccccc34)cc(=O)n21 (centres unmarked) | 200 µM
O=C(O)C1C(c2ccccc2)Sc2c(-c3ccc4c(c3)OCO4)c(COc3cccc4ccccc34)cc(=O)n21 (centres unmarked) | 100 µM

Turning now to a further compound:
stdin: If you can, please state the reported MBC value of O=C(O)C1CSc2c(-c3cccc(C(F)(F)F)c3)c(Cc3c4ccccc4cc4ccccc34)cc(=O)n21 (centres unmarked) .
stdout: 50 µM

====

So I've got MIC readings for E. faecalis, take a look.
Numbers only, in µM.

CCCCOc1ccc(-c2sc3c(C4CC4)c(Cc4cccc5ccccc45)cc(=O)n3c2C(=O)O)cc1C | 95
CCCCCOc1ccc(-c2sc3c(OC)c(Cc4cccc5ccccc45)cc(=O)n3c2C(=O)O)cc1C | 25

Parameters: items (list). Returns: MIC for each item.
1. CCCCOc1ccc(-c2sc3c(OC)c(Cc4cccc5ccccc45)cc(=O)n3c2C(=O)O)cc1C
2. O=C(O)C1CSc2c(-c3cccc(C(F)(F)F)c3)c(Cc3cccc4ccccc34)cc(=O)n21 (stereo not drawn)

stdout:
1. 39
2. 200

====

So I've got MIC readings for C. diff, take a look.
Answers are plain numbers, in µM.

O=C(O)C1C(c2ccccc2)Sc2c(-c3ccc4c(c3)OCO4)c(COc3cccc4ccccc34)cc(=O)n21 (centres unmarked) [Example 39] | 100
Cc1cccc(-c2sc3c(C4CC4)c(Cc4cccc5ccccc45)cc(=O)n3c2C(=O)O)c1 [Example 30] | 50
O=C(O)c1c(Cc2ccccc2)sc2c(C3CC3)c(Cc3cccc4ccccc34)cc(=O)n12 [Example 28] | 50
O=C(O)C1CSc2c(-c3cccc(C(F)(F)F)c3)c(Cc3cccc4ccccc34)cc(=O)n21 (centres unmarked) [Example 38] | 200

Turning now to a further molecule:
stdin: If you can, please state the reported MIC value of O=C(O)C1CSc2c(-c3cccc(C(F)(F)F)c3)c(Cc3c4ccccc4cc4ccccc34)cc(=O)n21 (centres unmarked) [Example 37] .
stdout: 50
